Reference source for all entries: patent US20120232070A1

# Measured Target: hNurr1_RXRγFL (NURR1/RXRγ heterodimer) (Homo sapiens, UniProt P43354+P48443)
# Sequence (P43354 328-598): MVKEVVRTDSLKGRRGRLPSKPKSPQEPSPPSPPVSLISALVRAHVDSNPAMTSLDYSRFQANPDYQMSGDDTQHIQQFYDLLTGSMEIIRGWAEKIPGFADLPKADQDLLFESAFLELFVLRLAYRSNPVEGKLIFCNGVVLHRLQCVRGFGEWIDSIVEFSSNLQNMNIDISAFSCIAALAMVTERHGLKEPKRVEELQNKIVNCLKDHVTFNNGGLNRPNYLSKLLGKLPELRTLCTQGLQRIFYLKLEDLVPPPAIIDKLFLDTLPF
# Sequence (P48443 whole entry, the tested form may be a part): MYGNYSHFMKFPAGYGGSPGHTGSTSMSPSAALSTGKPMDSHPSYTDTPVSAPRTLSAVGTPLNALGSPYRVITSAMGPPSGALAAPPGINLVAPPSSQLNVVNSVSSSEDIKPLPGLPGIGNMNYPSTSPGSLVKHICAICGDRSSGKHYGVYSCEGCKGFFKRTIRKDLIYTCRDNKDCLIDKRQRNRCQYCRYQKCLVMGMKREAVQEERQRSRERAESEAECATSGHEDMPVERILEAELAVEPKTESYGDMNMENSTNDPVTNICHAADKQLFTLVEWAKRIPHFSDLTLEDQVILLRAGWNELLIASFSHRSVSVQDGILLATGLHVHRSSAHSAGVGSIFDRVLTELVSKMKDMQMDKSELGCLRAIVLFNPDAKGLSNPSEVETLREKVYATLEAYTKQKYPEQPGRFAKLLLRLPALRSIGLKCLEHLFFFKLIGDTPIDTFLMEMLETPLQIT
# Assay Comment: Transactivation assay in Cos-7 cells, NURR-1-Gal4 / RXRγ, luciferase reporter
# Protocol Conditions: Cos-7 cells, overnight incubation
Measured Attribute: pEC50
The scale used: pEC50 is minus the common logarithm of the concentration in molar units.

Guide cases for pEC50, answers given:
molecule="CC(C)(C)c1ccc(S(=O)(=O)n2c(Cc3ccc(C(=O)O)cc3)cc3cc(Cl)ccc32)cc1 [Example 155]" measured_target="hNurr1_RXRγFL (NURR1/RXRγ heterodimer) (Homo sapiens, UniProt P43354+P48443)" measured_attribute=pEC50 readout_value=6.33
molecule="COc1ccc(S(=O)(=O)n2c(Cc3ccc(C(=O)O)cc3)cc3cc(Cl)ccc32)cn1 [Example 169]" measured_target="hNurr1_RXRγFL (NURR1/RXRγ heterodimer) (Homo sapiens, UniProt P43354+P48443)" measured_attribute=pEC50 readout_value=5.60
molecule="CN1CCOc2ccc(S(=O)(=O)n3c(Cc4ccc(C(=O)O)c(Cl)c4)cc4cc(C(F)(F)F)ccc43)cc21 [Example 211]" measured_target="hNurr1_RXRγFL (NURR1/RXRγ heterodimer) (Homo sapiens, UniProt P43354+P48443)" measured_attribute=pEC50 readout_value=6.33
molecule="CC1(C)CCc2cc(S(=O)(=O)n3c(Cc4ccc(C(=O)O)cc4)cc4cc(C(F)(F)F)ccc43)ccc2O1 [Example 132]" measured_target="hNurr1_RXRγFL (NURR1/RXRγ heterodimer) (Homo sapiens, UniProt P43354+P48443)" measured_attribute=pEC50 readout_value=6.45
molecule="O=C(O)c1ccc(Cc2cc3cc(Cl)ccc3n2S(=O)(=O)c2ccc(-c3cccc(F)c3)cc2)cc1 [Example 172]" measured_target="hNurr1_RXRγFL (NURR1/RXRγ heterodimer) (Homo sapiens, UniProt P43354+P48443)" measured_attribute=pEC50 readout_value=6.25

Problem: Item CCC(C)(C)c1ccc(S(=O)(=O)n2c(Cc3ccc(C(=O)O)cc3)cc3cc(Cl)ccc32)cc1 [Example 168] has what recorded pEC50?
Solution: 6.30

Problem: Item Cc1ccc2c(c1)cc(Cc1ccc(C(=O)O)cc1)n2S(=O)(=O)c1cccc(C(C)(C)C)c1 [Example 118] has what recorded pEC50?
Solution: 6.33

Problem: Item O=C(O)c1ccc(Cc2cc3cc(C(F)(F)F)ccc3n2S(=O)(=O)c2ccc3c(c2)OCCO3)cc1 [Example 22] has what recorded pEC50?
Solution: 6.46

Problem: Item CC(C)(C)c1cccc(S(=O)(=O)n2c(Cc3ccc(C(=O)O)cc3)cc3ccccc32)c1 [Example 195] has what recorded pEC50?
Solution: 5.93

Problem: Item O=C(O)c1ccc(Cc2cc3cc(C(F)(F)F)ccc3n2S(=O)(=O)c2cccc(-c3ccc(Cl)cc3)c2)cc1 [Example 146] has what recorded pEC50?
Solution: 5.93
